Origin of values: patent US9684238B2

- experiment: Transmittance of transparent cured film
- Type: physicochemical
- study_conditions: cured at exposure energy quantity 80 mJ/cm^2
Consider the following molecules; for each one, report its Transmittance (400 nm) Transparent cured film.
Answer in %, number only, no unit symbol.

Data request: Output Transmittance (400 nm) Transparent cured film of CCCCCCC1(CCCCCC)c2cc(C(=O)c3ccccc3)ccc2-c2ccc(C(C)=NOC(C)=O)cc21 [Compound 8]
Data returned: 100.0

Data request: Look up and report measured Transmittance (400 nm) Transparent cured film for this entry: CCCCCCC1(CCCCCC)c2cc(C(=O)c3cccs3)ccc2-c2ccc(C(CC(C)N(OC(C)=O)C(C)=O)=NOC(C)=O)cc21 (racemic) [Compound 11]
Data returned: 99.1

Data request: Provide Transmittance (400 nm) Transparent cured film value for the following molecule: CCCC1(CCC)c2cc(C(CCCCl)=NOC(C)=O)ccc2-c2ccc([N+](=O)[O-])cc21 [Compound D-12]
Data returned: 93.6

Data request: Query Transmittance (400 nm) Transparent cured film for CCn1c2ccc(/C(=N\OC(C)=O)c3ccc(OC(C)COC)cc3C)cc2c2cc([N+](=O)[O-])ccc21 (stereo not drawn) [Compound C-2, reference compound]
Data returned: 72.7

Data request: Look up and report measured Transmittance (400 nm) Transparent cured film for this entry: CCCC1(CCC)c2cc(C(=O)c3ccc([N+](=O)[O-])cc3)ccc2-c2ccc(C(=NOC(C)=O)C(C)C)cc21 (mixture of isomers) [Compound D-8]
Data returned: 98.0

Data request: Supply Transmittance (400 nm) Transparent cured film value. Item: CCCCCCC1(CCCCCC)c2cc(C(=O)c3ccccc3C)ccc2-c2ccc(C(C)=NOC(C)=O)cc21 [Compound 6]
Data returned: 99.6

---

So I've got a bunch of molecules here, and I need their 20-μm pattern line width values.
- experiment: Evaluation 3: 20-μm pattern line width of black photosensitive composition
- study_conditions: black composition (carbon black, cardo resin), initiator 0.4 mmol; 20 mJ/cm^2
Output: the number by itself.

Data request: Specify measured 20-μm pattern line width for CCCC1(CCC)c2cc(C(=O)c3ccc([N+](=O)[O-])cc3)ccc2-c2ccc(C(=NOC(C)=O)C(C)C)cc21 (mixture of isomers) .
Data returned: 18.7

Data request: Identify the reported 20-μm pattern line width for the following entry. `CCCCCCC1(CCCCCC)c2cc(C(=O)c3ccccc3)ccc2-c2ccc(C(C)=NOC(C)=O)cc21`
Data returned: 20.1

Data request: Complete the entry with 20-μm pattern line width for `CCCC1(CCC)c2cc(C(=O)c3ccccc3C)ccc2-c2ccc(/C(C)=N/OC(C)=O)cc21`
Data returned: 20.0

Data request: Please look at this molecule and report its 20-μm pattern line width: CCn1c2ccc(C(=O)c3ccccc3C)cc2c2cc(/C(C)=N/OC(C)=O)ccc21 [Compound C-1, reference compound]
Data returned: 19.0

Data request: Indicate its recorded 20-μm pattern line width; the molecule in question is `CCCC1(CCC)c2cc(C(=NOC(C)=O)c3ccc(C(C)(C)C)cc3)ccc2-c2ccc([N+](=O)[O-])cc21`
Data returned: 20.4

Data request: Answer with reported 20-μm pattern line width of `CCCC1(CCC)c2cc(C(=NOC(C)=O)c3ccccc3C)ccc2-c2ccc([N+](=O)[O-])cc21`
Data returned: 21.2

Data request: Note down 20-μm pattern line width recorded for `CCCC1(CCC)c2cc(C(=O)C(CCSc3ccc(Cl)cc3)=NOC(C)=O)ccc2-c2ccc([N+](=O)[O-])cc21`
Data returned: 19.9

Data request: Given `CCCC1(CCC)c2cc(C(=O)/C(C)=N/OC(C)=O)ccc2-c2ccc(C(=O)c3ccc([N+](=O)[O-])cc3)cc21` , respond with its 20-μm pattern line width.
Data returned: 19.1

---

- experiment: Transmittance of transparent cured film
- Type: physicochemical
- study_conditions: cured at exposure energy quantity 80 mJ/cm^2
quantity_measured: Average transmittance (700 nm to 400 nm) Transparent cured film (%)
Field: numeric (%). Do not append units.

Data request: Entry `CCCC1(CCC)c2cc(C(=NOC(C)=O)c3ccccc3)ccc2-c2ccc([N+](=O)[O-])cc21` needs its Average transmittance (700 nm to 400 nm) Transparent cured film filled in; supply it.
Data returned: 99.2

Data request: Hello, please tell me recorded Average transmittance (700 nm to 400 nm) Transparent cured film for this one: CCn1c2ccc(C(=O)c3ccccc3C)cc2c2cc(/C(C)=N/OC(C)=O)ccc21 [Compound C-1, reference compound]
Data returned: 99.8

Data request: Give a short answer stating reported Average transmittance (700 nm to 400 nm) Transparent cured film for CCCCCCC1(CCCCCC)c2cc(C(=O)c3ccc([N+](=O)[O-])cc3)ccc2-c2ccc(C(CC(C)N(OC(C)=O)C(C)=O)=NOC(C)=O)cc21 (racemic) .
Data returned: 99.8

Data request: Please indicate Average transmittance (700 nm to 400 nm) Transparent cured film recorded for `CCCCCCC1(CCCCCC)c2cc(C(=O)c3ccccc3)ccc2-c2ccc(C(C)=NOC(C)=O)cc21`
Data returned: 100.0

Data request: Identify the reported Average transmittance (700 nm to 400 nm) Transparent cured film for the following entry. `CCCC1(CCC)c2cc(C(=O)/C(C)=N/OC(C)=O)ccc2-c2ccc(C(=O)c3ccc([N+](=O)[O-])cc3)cc21`
Data returned: 99.8

Data request: Give a short answer stating reported Average transmittance (700 nm to 400 nm) Transparent cured film for CCCCCCC1(CCCCCC)c2cc(C(=O)c3cccs3)ccc2-c2ccc(C(CC(C)N(OC(C)=O)C(C)=O)=NOC(C)=O)cc21 (racemic) .
Data returned: 100.0

---

Answer each item with its documented Average transmittance (700 nm to 400 nm) Transparent cured film.
- experiment: Transmittance of transparent cured film
- Type: physicochemical
- study_conditions: cured at exposure energy quantity 80 mJ/cm^2
Could you give me the number in %? Just the number is fine.

Data request: Specify measured Average transmittance (700 nm to 400 nm) Transparent cured film for `CCCC1(CCC)c2cc(C(=O)c3ccccc3C)ccc2-c2ccc(/C(C)=N/OC(C)=O)cc21` .
Data returned: 99.9

Data request: Return reported Average transmittance (700 nm to 400 nm) Transparent cured film. Input compound: `CCCCCCC1(CCCCCC)c2cc(C(=O)c3ccccc3C)ccc2-c2ccc(C(C)=NOC(C)=O)cc21`
Data returned: 97.3

Data request: Consider the compound `CCCC1(CCC)c2cc(C(C)=NOC(C)=O)ccc2-c2ccc([N+](=O)[O-])cc21` and give its recorded Average transmittance (700 nm to 400 nm) Transparent cured film.
Data returned: 99.8

---

- experiment: Evaluation 1: 20-μm pattern line width of transparent photosensitive composition
- study_conditions: transparent composition, initiator 0.4 mmol; exposure energy quantity 5 mJ/cm^2
Can you tell me 20-μm pattern line width for the items I'm about to list?

Data request: Please supply the value of reported 20-μm pattern line width for the item CCCC1(CCC)c2cc(C(=O)c3ccc([N+](=O)[O-])cc3)ccc2-c2ccc(C(=NOC(C)=O)C(C)C)cc21 (mixture of isomers)
Data returned: 19.1

Data request: Please supply the value of reported 20-μm pattern line width for the item `CCCC1(CCC)c2cc(C(CCCCl)=NOC(C)=O)ccc2-c2ccc([N+](=O)[O-])cc21`
Data returned: 19.8

Data request: Name the recorded 20-μm pattern line width of the compound listed here: `CCCC1(CCC)c2cc(C(=O)C(CCSc3ccc(Cl)cc3)=NOC(C)=O)ccc2-c2ccc([N+](=O)[O-])cc21`
Data returned: 19.5

Data request: # return recorded 20-μm pattern line width for entry `CCCC1(CCC)c2cc(C(CCCSc3ccc(Cl)cc3)=NOC(C)=O)ccc2-c2ccc([N+](=O)[O-])cc21`
Data returned: 19.9

Data request: For `CCCC1(CCC)c2cc(C(=O)c3ccc([N+](=O)[O-])cc3)ccc2-c2ccc(C(C)=NOC(C)=O)cc21` , write its 20-μm pattern line width.
Data returned: 19.3

Data request: Return 20-μm pattern line width (reported value) for this compound: `CCCC1(CCC)c2cc(C(=O)/C(C)=N/OC(C)=O)ccc2-c2ccc(C(=O)c3ccc([N+](=O)[O-])cc3)cc21`
Data returned: 19.3

Data request: Look up and report measured 20-μm pattern line width for this entry: `CCCC1(CCC)c2cc(C(C)=NOC(C)=O)ccc2-c2ccc([N+](=O)[O-])cc21`
Data returned: 19.6

---

- experiment: Evaluation 3: 20-μm pattern line width of black photosensitive composition
- study_conditions: black composition (carbon black, cardo resin), initiator 0.4 mmol; 40 mJ/cm^2
- Description: The mixture was filtered with a membrane filter having an aperture of 5 μm to provide a photosensitive composition. Photosensitive compositions were each obtained in the same manner as in Example 10 except that the used fluorene-based compound and its usage were changed as shown in Table 5. […]
quantity_measured: 20-μm pattern line width
Kindly provide the number alone.

Data request: Determine its reported 20-μm pattern line width: CCCCCCC1(CCCCCC)c2cc(C(=O)c3ccc(F)cc3)ccc2-c2ccc(/C(CC(C)N(OC(C)=O)C(C)=O)=N\OC(C)=O)cc21 (stereo not shown)
Data returned: 21.3

Data request: Tell us which 20-μm pattern line width value is on record for `CCCCCCC1(CCCCCC)c2cc(C(=O)c3ccccc3C)ccc2-c2ccc(C(C)=NOC(C)=O)cc21`
Data returned: 21.1

Data request: For `CCCC1(CCC)c2cc(C(CCCSc3ccc(Cl)cc3)=NOC(C)=O)ccc2-c2ccc([N+](=O)[O-])cc21` , write its 20-μm pattern line width.
Data returned: 21.7

Data request: Quickly give me recorded 20-μm pattern line width for `CCCCCCC1(CCCCCC)c2cc(C(=NOC(C)=O)c3ccccc3C)ccc2-c2ccc([N+](=O)[O-])cc21`
Data returned: 22.1

Data request: Identify 20-μm pattern line width associated with the compound `CCCC1(CCC)c2cc(C(C)=NOC(C)=O)ccc2-c2ccc([N+](=O)[O-])cc21`
Data returned: 21.6

Data request: Quick one: give measured 20-μm pattern line width for CCn1c2ccc(C(=O)c3ccccc3C)cc2c2cc(/C(C)=N/OC(C)=O)ccc21 [Compound C-1, reference compound]
Data returned: 20.0

Data request: Supply measured 20-μm pattern line width of `CCCC1(CCC)c2cc(C(=NOC(C)=O)c3ccccc3C)ccc2-c2ccc([N+](=O)[O-])cc21` in your reply.
Data returned: 22.1
